Measured CC50, listed per entry for reference.
# TEST DESCRIPTION: HEp-2 cell cytotoxicity, dose response, cytotoxicity control for RSV inhibitor project, HTS (AID 2410)
# Type: functional
# ASSAY CONTEXT: human respiratory syncytial virus
Calls of active or inactive are those of the source.
QUANTITY MEASURED: CC50

{"columns": ["COMPOUND STRING", "QUANTITY MEASURED", "RESULT"],
 "data": [
  ["COc1ccc(/C=C2\\SC(=S)N(NS(=O)(=O)c3ccccc3)C2=O)c(OC)c1", "CC50", "35.4 µM (active)"],
  ["CCOCCCN=C(S)N1CCCN(c2nc3cc(C)cc(C)c3cc2C#N)CC1", "CC50", "31.4 µM (active)"],
  ["CCOC(=O)CC(=O)CSc1nc(N)c(C#N)c(-c2ccc(Cl)cc2)c1C#N", "CC50", "23.6 µM (active)"],
  ["COc1ccc(NC(=O)/C=C/c2cccc(F)c2)cn1", "CC50", "34.7 µM (active)"],
  ["O=C(Nc1nccs1)c1ccc(-c2ccc(Cl)cc2)o1", "CC50", "> 50 µM (active)"],
  ["O=C(c1cc2sccc2n1Cc1ccc(F)cc1)N1CCc2ccccc21", "CC50", "36.2 µM (active)"],
  ["Cc1cc(C(=O)CSc2nnc(N)s2)c(C)n1CCc1ccc(Cl)cc1", "CC50", "17.1 µM (active)"]
]}

====

# TARGET OF ASSAY: Protein RecA (Mycobacterium tuberculosis, UniProt P9WHJ3)
# TEST DESCRIPTION: Fluorescence Cell-Free Homogeneous Dose Retest to Identify Inhibitors of RecA-Intein Splicing Activity. [Related pubchem assays (depositor defined):AID2097, AID2223, AID489010, AID492950]
# Format: functional
The source made the active and inactive calls.

{"columns": ["COMPOUND STRING", "EC50"],
 "data": [
  ["COc1ccccc1N1CCN(CC(=O)c2c(C)[nH]c3cc(C)ccc23)CC1", "94.2 µM (active)"],
  ["Cc1cc(=O)n(-c2ccc(O)cc2)[nH]1", "0.774 µM (active)"],
  ["CN(C)/C=C/C(=O)c1ccc2noc(-c3ccc(F)cc3)c2c1", "> 380 µM (inactive)"],
  ["CCCCCCCCCCOC(=O)C[n+]1c(COc2ccccc2OC)n(C)c2ccccc21", "8.91 µM (active)"],
  ["C(=N\\Nc1nncc2ccccc12)/c1ccccn1", "1.29 µM (active)"],
  ["CC(C)c1nnc(NC(=O)c2nc(S(=O)(=O)Cc3ccccc3F)ncc2Cl)s1", "3.16 µM (active)"]
]}

====

# TARGET OF ASSAY: Histone-lysine N-methyltransferase NSD2 (Homo sapiens, UniProt O96028)
# Sequence (O96028 whole entry): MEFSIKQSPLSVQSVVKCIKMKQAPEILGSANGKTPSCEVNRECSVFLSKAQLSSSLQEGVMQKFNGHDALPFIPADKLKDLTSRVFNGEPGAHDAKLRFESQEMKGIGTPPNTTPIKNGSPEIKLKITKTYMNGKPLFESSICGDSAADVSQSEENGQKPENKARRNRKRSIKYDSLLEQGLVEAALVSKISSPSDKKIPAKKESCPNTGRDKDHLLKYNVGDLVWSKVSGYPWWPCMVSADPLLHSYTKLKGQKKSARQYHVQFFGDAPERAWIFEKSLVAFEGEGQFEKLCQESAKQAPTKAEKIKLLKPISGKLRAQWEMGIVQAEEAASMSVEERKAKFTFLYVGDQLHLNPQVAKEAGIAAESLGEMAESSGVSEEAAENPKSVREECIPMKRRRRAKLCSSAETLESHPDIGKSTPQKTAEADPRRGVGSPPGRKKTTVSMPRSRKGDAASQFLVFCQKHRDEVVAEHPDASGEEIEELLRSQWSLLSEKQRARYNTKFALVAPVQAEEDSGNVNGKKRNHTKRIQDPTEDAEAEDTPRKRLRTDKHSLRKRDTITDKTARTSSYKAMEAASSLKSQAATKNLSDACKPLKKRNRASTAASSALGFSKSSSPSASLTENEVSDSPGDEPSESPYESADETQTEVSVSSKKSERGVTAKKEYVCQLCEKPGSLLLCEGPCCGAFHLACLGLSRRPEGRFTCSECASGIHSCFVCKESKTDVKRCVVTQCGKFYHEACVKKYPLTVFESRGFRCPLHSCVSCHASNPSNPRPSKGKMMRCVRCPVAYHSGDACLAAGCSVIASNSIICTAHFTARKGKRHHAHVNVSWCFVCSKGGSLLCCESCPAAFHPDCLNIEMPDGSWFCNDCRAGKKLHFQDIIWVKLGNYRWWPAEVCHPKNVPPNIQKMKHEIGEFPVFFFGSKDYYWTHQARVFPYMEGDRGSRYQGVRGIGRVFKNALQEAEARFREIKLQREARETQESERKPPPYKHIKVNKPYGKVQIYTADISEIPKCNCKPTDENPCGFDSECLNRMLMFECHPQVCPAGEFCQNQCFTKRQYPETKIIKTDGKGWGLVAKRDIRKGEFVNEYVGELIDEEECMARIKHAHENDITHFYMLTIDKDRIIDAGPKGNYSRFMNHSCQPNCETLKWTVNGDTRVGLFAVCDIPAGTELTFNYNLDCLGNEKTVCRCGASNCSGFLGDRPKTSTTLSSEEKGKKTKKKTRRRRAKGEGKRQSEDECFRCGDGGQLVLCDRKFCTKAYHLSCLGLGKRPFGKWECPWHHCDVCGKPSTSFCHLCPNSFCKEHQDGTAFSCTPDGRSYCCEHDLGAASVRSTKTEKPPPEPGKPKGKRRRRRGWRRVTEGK
# Type: biochemical
Calls of active or inactive are those of the source.
Outcomes: Y for active, N for inactive

{"columns": ["COMPOUND", "GROUP LABEL"],
 "data": [
  ["Cc1cc(C=O)c(C)n1-c1ccc(N2CCCCC2)c([N+](=O)[O-])c1", "N"],
  ["Cc1ccc2nc(-c3ccc(O)c(O)c3)cn2c1", "N"],
  ["CC(=O)c1cc(O)c2ccccc2c1O", "Y"],
  ["O=C(O)CCCCCn1c(SCC(=O)c2ccc(O)c(O)c2)nc2ccsc2c1=O", "Y"],
  ["O=c1ccc2c(-c3ccccc3S(=O)(=O)O)c3ccc(O)c(O)c3oc-2c1O [PYROGALLOL RED]", "Y"]
]}

====

# TARGET OF ASSAY: RNA-binding protein pos-1 (Caenorhabditis elegans, UniProt G5EF15)
# Sequence (G5EF15 whole entry, the tested form may be a part): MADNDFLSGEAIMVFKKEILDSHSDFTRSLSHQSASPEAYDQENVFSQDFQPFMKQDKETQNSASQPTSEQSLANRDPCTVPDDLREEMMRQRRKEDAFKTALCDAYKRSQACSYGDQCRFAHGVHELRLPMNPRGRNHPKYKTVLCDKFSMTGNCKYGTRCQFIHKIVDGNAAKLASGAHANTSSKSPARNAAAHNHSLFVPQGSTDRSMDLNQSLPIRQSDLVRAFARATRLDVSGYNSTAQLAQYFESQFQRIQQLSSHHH
# TEST DESCRIPTION: inhibitors of POS-1/mex-3 RNA binding, dose response, biochemical, fluorescence polarization (AID 1964);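 further: purified POS-1 fused to maltose binding protein made in E. coli; potency of compounds blocking POS-1 binding to fluorescent RNA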
Active and inactive are the calls of the source.
Measured EC50, listed per entry for reference.

{"columns": ["MOLECULE", "EC50"],
 "data": [
  ["CCN1C=CC2=C(C#N)C(N)C(C#N)(C#N)C(c3ccccc3C(F)(F)F)C2C1 (stereo unspecified)", "260 µM (inconclusive)"],
  ["CC1(CCl)[N+]([O-])=C2CCCCC2=[N+]1[O-]", "> 300 µM (not active)"],
  ["CC1C(=O)NN=C1C(=O)N/N=C/c1ccco1 (stereo unspecified)", "> 300 µM (not active)"],
  ["Cc1ccccc1CSCCN=C(S)Nc1ccccc1", "> 300 µM (not active)"],
  ["CC(C)(C)OC(=O)NC(Cc1ccccc1)C(=O)N1CCC(C(=O)NCC(=O)Nc2ccc(F)cc2)CC1 (stereo unspecified)", "7.08 µM (active)"],
  ["COc1ccc(/C=c2\\sc3nc(-c4ccccc4OC)nn3c2=O)c(OC)c1", "21.5 µM (active)"],
  ["O=C(O)CCCCCn1c(SCC(=O)c2ccc(O)c(O)c2)nc2ccsc2c1=O", "270 µM (active)"],
  ["O=C(Cc1ccccc1)NNC(=O)c1cnccn1", "> 300 µM (not active)"],
  ["COC(=O)/C=C1\\C(=O)N(c2nc3ccccc3s2)C(=S)N1c1ccc(F)cc1", "> 300 µM (not active)"],
  ["CCn1c2ccccc2c(=O)c2ccccc21", "> 300 µM (not active)"],
  ["CSCC(C)N1CCC(N2CCC(C(=O)NCc3ccccn3)CC2)CC1 (stereo unspecified)", "161 µM (active)"]
]}

====

# TARGET OF ASSAY: Large T antigen (Simian virus 40, UniProt P03070);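 further: Confirmatory-stage PubChem screen for compounds that inhibit SV40 T antigen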
# Sequence (P03070 whole entry): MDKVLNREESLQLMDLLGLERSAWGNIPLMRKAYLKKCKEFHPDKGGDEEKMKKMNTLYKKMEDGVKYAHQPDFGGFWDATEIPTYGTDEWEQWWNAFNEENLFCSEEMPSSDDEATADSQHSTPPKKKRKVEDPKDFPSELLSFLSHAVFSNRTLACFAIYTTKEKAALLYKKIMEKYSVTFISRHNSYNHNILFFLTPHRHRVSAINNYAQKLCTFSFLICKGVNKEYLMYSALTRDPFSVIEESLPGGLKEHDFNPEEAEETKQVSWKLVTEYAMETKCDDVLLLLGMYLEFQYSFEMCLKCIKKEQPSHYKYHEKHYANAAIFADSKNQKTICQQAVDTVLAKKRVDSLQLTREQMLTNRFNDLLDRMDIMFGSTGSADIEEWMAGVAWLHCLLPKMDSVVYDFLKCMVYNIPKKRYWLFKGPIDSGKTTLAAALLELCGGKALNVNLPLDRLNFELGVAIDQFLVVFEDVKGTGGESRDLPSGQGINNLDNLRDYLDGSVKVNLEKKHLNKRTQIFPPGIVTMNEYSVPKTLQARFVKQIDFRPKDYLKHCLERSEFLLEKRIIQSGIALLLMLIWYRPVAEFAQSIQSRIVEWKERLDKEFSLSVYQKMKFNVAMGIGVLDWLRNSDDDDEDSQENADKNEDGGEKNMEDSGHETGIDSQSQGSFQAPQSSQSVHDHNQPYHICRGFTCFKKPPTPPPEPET
# Format: functional, Betapolyomavirus macacae
Active and inactive are the calls of the source.

{"columns": ["COMPOUND", "TARGET OF ASSAY", "IC50"],
 "data": [
  ["COc1cc2c(cc1N=C(S)Nc1ccccc1C)oc1ccccc12", "Large T antigen (Simian virus 40, UniProt P03070)", "56.4 µM (active)"],
  ["O=C1NC(=O)N(c2ccc(Cl)cc2)C(=O)/C1=C\\c1ccc(Sc2nc3ccccc3[nH]2)o1", "Large T antigen (Simian virus 40, UniProt P03070)", "18.8 µM (active)"],
  ["Cc1cc(-c2ccc(N=Nc3c(S(=O)(=O)O)cc4cc(S(=O)(=O)O)cc(N)c4c3O)c(C)c2)ccc1N=Nc1c(S(=O)(=O)O)cc2cc(S(=O)(=O)O)cc(N)c2c1O", "Large T antigen (Simian virus 40, UniProt P03070)", "2.38 µM (active)"],
  ["Cc1nc2cc(N=NN(C)C)ccc2[nH]1", "Large T antigen (Simian virus 40, UniProt P03070)", "> 100 µM (active)"],
  ["CCN1C(=O)CC(N2CCC(Nc3ccc(OC)cc3)CC2)C1=O (stereo unspecified)", "Large T antigen (Simian virus 40, UniProt P03070)", "57.7 µM (active)"],
  ["O=C(Nc1ccc(Nc2ccccc2)cc1)N1CCOCC1", "Large T antigen (Simian virus 40, UniProt P03070)", "7.43 µM (active)"],
  ["COc1cccc(N2C(=O)NC(=O)/C(=C\\c3ccc([N+](=O)[O-])s3)C2=O)c1", "Large T antigen (Simian virus 40, UniProt P03070)", "32.4 µM (active)"],
  ["CCN(CC)c1ccc(NC(=O)c2ccco2)cc1", "Large T antigen (Simian virus 40, UniProt P03070)", "5.01 µM (active)"],
  ["O=C1NC(=O)C(c2ccccc2[N+](=O)[O-])=C1Nc1ccc(O)c(Cl)c1", "Large T antigen (Simian virus 40, UniProt P03070)", "55.4 µM (active)"],
  ["O=C1C=CC(=O)N1c1ccc(O)cc1", "Large T antigen (Simian virus 40, UniProt P03070)", "81 µM (active)"],
  ["CCOc1cc(N2CCOCC2)c(OCC)cc1NS(=O)(=O)c1ccc(Cl)s1", "Large T antigen (Simian virus 40, UniProt P03070)", "61.4 µM (active)"]
]}

// data source = ChEMBL document CHEMBL1201862
